Test system: c-Abl (mouse);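 note: 11-residue human phosphosite peptides and single-mutation variants displayed on the E. coli surface, counted by deep sequencing, each peptide's frequency after selection divided by its frequency in the unselected input library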;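 note: frequency after pTyr selection over input frequency; kinase dosed for 20-30% of maximal phosphorylation in three min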
Assay: phosphorylation enrichment, bacterial display (enrichment ratio); higher = better substrate or ligand; peptides without Tyr show the background
Listed next: entries and their corresponding phosphorylation enrichment.
Enter the number alone.

Reference set (5 entries):
Sequence content | phosphorylation enrichment
EFNLMYDGTKE [IRF6_Y97] | 0.705
KQLFAYKMLMA [TMC2_Y209_YF] | 0.711
RPSRQYATRDV [SCAMP3_Y35_L38R] | 0.615
EMTAEYACTRK [ACAD9_Y325] | 0.603
LEDDVYRKTCT [XPA_Y257_M256V] | 1.74

Quick check: phosphorylation enrichment of TRFDEYLEVTK [MAP1A_Y2217_H2214Y_YF] ?
0.731

Requested read-out: phosphorylation enrichment. Entry: TGDRPYVCPFD [YY1_Y383]
0.706

Please report the recorded phosphorylation enrichment for IIRFNYLLDVL [FGFR4_Y237_S232I_YF] .
0.996

What value of measured phosphorylation enrichment is listed for LMVFEYMRHGN [NTRK1_Y591_D596N] ?
0.912

Item QRKRAYVEIEY [MAK16_Y282] has what recorded phosphorylation enrichment?
2.01

May I ask what phosphorylation enrichment has been recorded for LFLALYTGLVR [PIGB_Y402_H407R] ?
0.896

Which phosphorylation enrichment is listed for AGAKTYKMSMA [CPS1_Y309] ?
0.383

Reported phosphorylation enrichment for KRLWDYGMSSS [F8_Y1728_E1723K] : what is it?
0.536

What phosphorylation enrichment value was documented for this sequence, PRLLRYLQLDF [ASB10_Y457] ?
1.04

----------
Molecular target: c-Src SH2
Assay: SH2 binding enrichment of the phosphorylated peptide, bacterial display (enrichment ratio); higher = better substrate or ligand; peptides without Tyr show the background
Observation type: SH2 binding enrichment
Response field accepts a number only; no unit should be typed.

Solved cases below.
Sequence content | SH2 binding enrichment
ETKEDYEKILV [ANXA1_Y335_G333E] | 0.594
KASIMYPSNNC [CXCL11_Y52] | 0.589
REDIFYTSKLW [AKR1C2_Y81] | 0.598

I am curious: what SH2 binding enrichment value has been reported for AGQEDCDRLRP [CDC42_Y64_Y64C] ?
0.548

SH2 binding enrichment for IKKFKYGIEEH [GJA1_Y137] ?
0.502

For the sequence shown here, SSREEYFIGGG [GYPC_Y126_K124E] , give the reported SH2 binding enrichment.
0.486

----------
Molecular target: SHP2-C SH2
Experiment: SH2 binding enrichment of the phosphorylated peptide, bacterial display (enrichment ratio); higher = better substrate or ligand; peptides without Tyr show the background
Observation type: SH2 binding enrichment
Number only, no unit.

Sample records with SH2 binding enrichment:
Sequence content | SH2 binding enrichment
IAKNPYDPPGR | 0.482
LNWIYYKDQTG [RS1_Y166] | 1.07
LKRCQYVTEKV [ALDOA_Y204] | 0.654

Field: SH2 binding enrichment (SHP2-C SH2). Entry: FIPSNYVAEDR [FRK_Y104_YF]
0.868

Look up SH2 binding enrichment with SHP2-C SH2 for this sequence: QPGDICHQTWA [GBA_Y244_Y244C]
0.603

Item LDLSFYPTSSS [EMD_Y182_YF] with SHP2-C SH2 - SH2 binding enrichment?
0.686

Please state recorded SH2 binding enrichment (tested on SHP2-C SH2) of PLLEFYWDIFT [CDAN1_Y713_R714W_YF]
0.719

Which measured SH2 binding enrichment belongs to EKEKKYMLPLD [DNM2_Y563] , tested on SHP2-C SH2?
0.841

Return SH2 binding enrichment measured with SHP2-C SH2 given this sequence: ILDEAYVMAGA [ERBB2_Y772_V777A]
0.857

Please tell me: SH2 binding enrichment of EFTAGYNVKFD [GPX4_Y123_A120T] , system SHP2-C SH2?
0.605

# returns recorded SH2 binding enrichment (system: SHP2-C SH2) for RMDGKYACSFT [FLNB_Y704_T703K_YF]
0.638

Request - read-out SH2 binding enrichment | tested on SHP2-C SH2 | sequence GFEVVYMTEPI [HSP90AB1_Y512]
0.694

SHP2-C SH2 / SH2 binding enrichment / KLPFLYDDPFS [GPX2_Y127_P126L_YF] : value?
0.841
